molecular target: MARV VP35 RBD (Marburg virus, UniProt P35259 205-329); assay: dual-filter dot blot; Hill 3.5±0.3; 10 mM Tris pH 8.0, 200 mM NaCl, 2 mM TCEP ([…], and ITC); temperature not stated; conditions: protein: recombinant; tags: 6xHis (pET46b), TEV-cleaved; chain copies: 4; label: 5'-32P sense strand (dot blot); none in ITC; blunt
Sequence (P35259 205-329): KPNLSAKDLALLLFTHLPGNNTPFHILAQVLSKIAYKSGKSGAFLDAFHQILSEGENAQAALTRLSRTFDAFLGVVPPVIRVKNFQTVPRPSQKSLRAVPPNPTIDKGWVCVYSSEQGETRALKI
readout-type: pKd
Scale: negative log10 of molar concentration, which is what pKd denotes.

Entry 18-bp blunt-ended dsRNA (dsRNA) RNA 1: AGAAGGAGGGAGGGAGGA RNA 2: UCCUCCCUCCCUCCUUCU : reported pKd = ?
5.08
